Give protein stability index for every item shown.
B1: NECAB1 (parent)
chain: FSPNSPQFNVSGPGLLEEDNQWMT

# Variants of: B1
# test-summary: protein stability index of a GFP-peptide fusion (GPS, HEK-293T) (PSI 1-6); higher = more stable;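 note: lentivirally expressed fusions sorted by FACS into six bins by GFP to DsRed ratio, PSI derived from sequencing read proportions per bin multiplied by bin number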
# experimental-context: c terminus: a fixed tail appended
Numbers only.

INSERT INTO assay_data (sequence_data, parameter_measured, meas_value) VALUES
  ('FSPNSPQFNVSGPHLLEEDNQWMT [G14H]', 'protein stability index', 2.47),
  ('FSPNSPQFNVSGPGLLEEDNQIMT [W22I]', 'protein stability index', 3.67),
  ('FSPNSPQFNGSGPGLLEEDNQWMT [V10G]', 'protein stability index', 2.92);

Record protein stability index for all entries; do not skip any.
1. FFPNSPQFNVSGPGLLEEDNQWMT [S2F]
2. FSPLSPQFNVSGPGLLEEDNQWMT [N4L]
3. FSPNSPQFQVSGPGLLEEDNQWMT [N9Q]
4. FSPNSPQFNVSGPGLLELDNQWMT [E18L]
5. FSPNSPQFYVSGPGLLEEDNQWMT [N9Y]
6. FSPNPPQFNVSGPGLLEEDNQWMT [S5P]

[3.06, 2.64, 2.67, 2.03, 3.54, 3.39]
